test system: human airway epithelial cells (HAECs); test: High-throughput sequencing (HTS) of miRNAs at four stages of differentiation of HAECs; conditions: stage D7; Table VI
# Level of intensity of expression in log2 measured by high-throughput sequencing, D7 listing for each entry below
Give the quantity in log2, number only.

[
  {
    "substance": "hsa-miR-181a: human miRNA, SEQ ID No. 12 (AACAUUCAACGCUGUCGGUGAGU; expressed or natural sequence; listed as Homo sapiens)",
    "assay_value": 0.01
  },
  {
    "substance": "hsa-miR-151-5p: human miRNA, SEQ ID No. 8 (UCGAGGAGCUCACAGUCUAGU; expressed or natural sequence; listed as Homo sapiens)",
    "assay_value": 10.33
  }
]

# next substance below
query: Give its Level of intensity of expression in log2 measured by high-throughput sequencing, D7 value. Item: hsa-miR-125a-5p: human miRNA, SEQ ID No. 3 (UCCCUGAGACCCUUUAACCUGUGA; expressed or natural sequence; listed as Homo sapiens)
result: 13.55

* * *

test system: basal cells and pyramidal cells of the airway epithelium; assay: miRNA expression in sorted basal cells versus pyramidal cells (ciliated + secretory), HTS and Agilent chips; parameters: species or system human; conditions: basal cells
# Intensity of the level of expression in log2 in basal cells (323(+)) listing for each entry below
Give the quantity in log2, number only.

Known results for substances:
[
  {
    "substance": "hsa-miR-151-5p: human miRNA, SEQ ID No. 8 (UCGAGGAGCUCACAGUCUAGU; expressed or natural sequence; listed as Homo sapiens)",
    "assay_value": 7.24
  },
  {
    "substance": "hsa-miR-141: human miRNA, SEQ ID No. 6 (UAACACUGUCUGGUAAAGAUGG; expressed or natural sequence; listed as Homo sapiens)",
    "assay_value": 11.12
  }
]

# next substance below
query: Give its Intensity of the level of expression in log2 in basal cells (323(+)) value. Item: hsa-miR-15a: human miRNA, SEQ ID No. 9 (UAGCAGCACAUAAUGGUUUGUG; expressed or natural sequence; listed as Homo sapiens)
result: 7.86

* * *

test system: human airway epithelial cells (HAECs); assay: High-throughput sequencing (HTS) of miRNAs at four stages of differentiation of HAECs; conditions: stage WD; Table VI
measured_quantity: Level of intensity of expression in log2 measured by high-throughput sequencing, WD (log2)
Give the quantity in log2, number only.

Known results for substances:
[
  {
    "substance": "hsa-miR-26b: human miRNA, SEQ ID No. 29 (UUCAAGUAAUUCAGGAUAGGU; expressed or natural sequence; listed as Homo sapiens)",
    "assayed_target": "human airway epithelial cells (HAECs)",
    "units_label": "log2",
    "assay_value": 7.75
  },
  {
    "substance": "hsa-miR-200a: human miRNA, SEQ ID No. 16 (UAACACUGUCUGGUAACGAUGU; expressed or natural sequence; listed as Homo sapiens)",
    "assayed_target": "human airway epithelial cells (HAECs)",
    "units_label": "log2",
    "assay_value": 11.22
  },
  {
    "substance": "hsa-let-7f: human miRNA, SEQ ID No. 161 (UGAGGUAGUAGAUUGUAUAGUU; expressed or natural sequence; listed as Homo sapiens)",
    "assayed_target": "human airway epithelial cells (HAECs)",
    "units_label": "log2",
    "assay_value": 5.35
  },
  {
    "substance": "hsa-miR-125a-5p: human miRNA, SEQ ID No. 3 (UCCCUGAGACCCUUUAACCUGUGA; expressed or natural sequence; listed as Homo sapiens)",
    "assayed_target": "human airway epithelial cells (HAECs)",
    "units_label": "log2",
    "assay_value": 14.08
  },
  {
    "substance": "hsa-miR-30e: human miRNA, SEQ ID No. 36 (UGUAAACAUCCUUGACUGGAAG; expressed or natural sequence; listed as Homo sapiens)",
    "assayed_target": "human airway epithelial cells (HAECs)",
    "units_label": "log2",
    "assay_value": 8.76
  }
]

query: Give its Level of intensity of expression in log2 measured by high-throughput sequencing, WD value. Item: hsa-miR-200b: human miRNA, SEQ ID No. 17 (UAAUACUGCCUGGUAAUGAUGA; expressed or natural sequence; listed as Homo sapiens)
result: 10.96

query: # repeat for hsa-miR-429: human miRNA, SEQ ID No. 45 (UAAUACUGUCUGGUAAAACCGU; expressed or natural sequence; listed as Homo sapiens)
result: 9.53

query: # repeat for hsa-miR-148a: human miRNA, SEQ ID No. 7 (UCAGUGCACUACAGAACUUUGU; expressed or natural sequence; listed as Homo sapiens)
result: 8.97

query: # repeat for hsa-miR-141: human miRNA, SEQ ID No. 6 (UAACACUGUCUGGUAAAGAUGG; expressed or natural sequence; listed as Homo sapiens)
result: 9.75

query: # repeat for hsa-miR-939: human miRNA, SEQ ID No. 50 (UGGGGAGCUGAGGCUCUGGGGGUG; expressed or natural sequence; listed as Homo sapiens)
result: 0.01

query: # repeat for hsa-miR-151-5p: human miRNA, SEQ ID No. 8 (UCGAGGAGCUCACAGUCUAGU; expressed or natural sequence; listed as Homo sapiens)
result: 10.22
